assay system: Clostridioides difficile toxin A (Clostridioides difficile, strain not …, UniProt P16154)
experimental protocol: SPR
study conditions: both partners purified
Catalogue of kon readings, one per entry.

| binder | kon (M⁻¹ s⁻¹) |
| --- | --- |
| A26.8 VHH, wild-type (canonical Cys23-Cys104 disulfide linkage only) (VHH) VHH: QVKLEESGGGLVQAGGSLRLSCAASERTFSRYPVAWFRQAPGAEREFVAVISSTGTSTYYADSVKGRFTISRDNAKVTVYLQMNNLKREDTAVYFCAVNSQRTRLQDPNEYDYWGQGTQVTVSS | 1.57e+06 |
| A26.8 VHH with engineered Cys4-Cys25 disulfide linkage (VHH) VHH: QVKCEESGGGLVQAGGSLRLSCACSERTFSRYPVAWFRQAPGAEREFVAVISSTGTSTYYADSVKGRFTISRDNAKVTVYLQMNNLKREDTAVYFCAVNSQRTRLQDPNEYDYWGQGTQVTVSS | 4.93e+06 |
